# Tested on: S. aureus BAA-2312 (Sa12)
# ASSAY: Minimal inhibitory concentration (MIC) assay
# Assay type: cell-based
# CONDITION DETAILS: Staphylococcus aureus, BAA2312; S. aureus BAA-2312, antibiotic-resistant strain; read-out: Antimicrobial activity (MIC) Sa12

STRUCTURE SMILES STRING	STUDY SYSTEM	MIC
C=C(C)[C@@H]1CC=C2c3sc(C4CCOCC4)nc3C[C@@H](C)[C@]2(C)C1	S. aureus BAA-2312 (Sa12)	100 µg/mL
C=C(C)[C@@H]1CC=C2c3sc(-c4ccc5c(c4)OCO5)nc3C[C@@H](C)[C@]2(C)C1	S. aureus BAA-2312 (Sa12)	> 100 µg/mL
C=C(C)[C@@H]1CC=C2c3sc(-c4ccc(Oc5ccc(C(F)(F)F)cn5)cc4)nc3C[C@@H](C)[C@]2(C)C1	S. aureus BAA-2312 (Sa12)	> 100 µg/mL
C=C(C)[C@@H]1CC=C2c3sc(Nc4ccc(OC(F)(F)F)cc4)nc3C[C@@H](C)[C@]2(C)C1	S. aureus BAA-2312 (Sa12)	> 100 µg/mL
C=C(C)[C@@H]1CC=C2c3sc(-c4ccc(O)c(O)c4)nc3C[C@@H](C)[C@]2(C)C1	S. aureus BAA-2312 (Sa12)	3.12 µg/mL
C=C(C)[C@@H]1CC=C2c3sc(-c4ccc(F)c(F)c4)nc3C[C@@H](C)[C@]2(C)C1	S. aureus BAA-2312 (Sa12)	> 100 µg/mL
C=C(C)[C@@H]1CC=C2c3sc(-c4ccc(C(C)(C)C)cc4)nc3C[C@@H](C)[C@]2(C)C1	S. aureus BAA-2312 (Sa12)	> 100 µg/mL

###

# System: S. aureus BAA-2312 (Sa12)
# ASSAY: Minimal inhibitory concentration (MIC) assay
# Format: cell-based
# CONDITION DETAILS: Staphylococcus aureus, BAA2312; S. aureus BAA-2312, antibiotic-resistant strain; read-out: Antimicrobial activity (MIC) Sa12

STRUCTURE SMILES STRING	QUANTITY UNIT	COMPARATOR	MIC
C=C(C)[C@@H]1CC=C2c3sc(-c4ccc(O)cc4)nc3C[C@@H](C)[C@]2(C)C1	µg/mL	=	12.5
C=C(C)[C@@H]1CC=C2c3sc(Nc4cccc(C(F)(F)F)c4)nc3CC[C@]2(C)[C@H]1C	µg/mL	>	100
C=C(C)[C@@H]1CC=C2c3sc(-c4cccc(OCC)c4)nc3C[C@@H](C)[C@]2(C)C1	µg/mL	>	100
C=C(C)[C@@H]1CC=C2c3sc(-c4ccc(Br)cc4)nc3C[C@@H](C)[C@]2(C)C1	µg/mL	>	100
C=C(C)[C@@H]1CC=C2c3sc(-c4ccc([N+](=O)[O-])cc4)nc3C[C@@H](C)[C@]2(C)C1	µg/mL	>	100
C=C(C)[C@@H]1CC=C2c3sc(-c4ccc(Cl)cc4)nc3C[C@@H](C)[C@]2(C)C1	µg/mL	=	25
C=C(C)[C@@H]1CC=C2c3sc(-c4ccccc4O)nc3C[C@@H](C)[C@]2(C)C1	µg/mL	=	100
C=C(C)[C@@H]1CC=C2c3sc(-c4cccc(O)c4)nc3C[C@@H](C)[C@]2(C)C1	µg/mL	>	100
C=C(C)[C@@H]1CC=C2c3sc(-c4ccc(F)cc4)nc3C[C@@H](C)[C@]2(C)C1	µg/mL	=	25
